# System: CBP (Homo sapiens (Human))
# Procedure details: In vitro CBP inhibition (AlphaScreen, biotinylated H4-tetraacetyl peptide)
# Assay type: binding
# Details: AlphaScreen, Table 29; read-out: CBP IC50
pIC50: −log10 of the molar value.
Experimental readout: pIC50

Kindly note the recorded pIC50 for Cn1cc(-c2cnn(Cc3ccccc3)c2)c(N2CCC(S(C)(=O)=O)C2)cc1=O (centres unmarked) , which is > 6.30

Kindly note the recorded pIC50 for `CC(C)c1ccc(-c2cc(=O)n(C)cc2-c2cnn(-c3cccc(Cl)c3C#N)c2)cn1` , which is > 6.30

Kindly note the recorded pIC50 for CC(=O)NC[C@H]1CCN(c2cc(=O)n(C)cc2-c2cnn(Cc3ccccc3)c2)C1 (stereo in doubt) , which is 5.30 to 6.30

Kindly note the recorded pIC50 for `CCOC(=O)c1nn(Cc2ccccc2)cc1-c1cc(C)c(=O)n(C)c1` , which is > 6.30

Kindly note the recorded pIC50 for CC(c1ccccc1)n1cc(-c2cn(C)c(=O)cc2-c2ccn(C)c(=O)c2)cn1 (centres unmarked) , which is > 6.30

Kindly note the recorded pIC50 for `Cn1cc(-c2cnn(-c3ccccc3S(C)(=O)=O)c2)c(-c2ccc(Cl)cc2)cc1=O` , which is > 6.30

Kindly note the recorded pIC50 for `Cc1cc(-c2cnn(-c3cc(Oc4ccccc4)ccc3C#N)c2)cn(C)c1=O` , which is > 6.30

Kindly note the recorded pIC50 for `Cn1cc(-c2cnn(Cc3ccccc3)c2)c(-c2ccccn2)cc1=O` , which is 5.30 to 6.30

Kindly note the recorded pIC50 for `Cn1cc(-c2cnn(Cc3cccc(C#N)c3)c2)ccc1=O` , which is 5.30 to 6.30

Kindly note the recorded pIC50 for `CNNc1cc(=O)n(C)cc1-c1cnn(Cc2ccccc2)c1` , which is 5.30 to 6.30

Kindly note the recorded pIC50 for `CC(C)Nc1ccc(-c2cc(=O)n(C)cc2-c2cnn(-c3cccc(Cl)c3C#N)c2)cn1` , which is > 6.30

---

# System: CBP (Homo sapiens (Human), UniProt Q92793)
# Sequence (Q92793 1081-1197): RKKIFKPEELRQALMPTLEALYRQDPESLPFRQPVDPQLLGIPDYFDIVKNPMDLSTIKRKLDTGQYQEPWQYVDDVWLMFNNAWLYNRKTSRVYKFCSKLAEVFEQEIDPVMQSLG
# Procedure details: In vitro CBP inhibition (AlphaScreen, biotinylated H4-tetraacetyl peptide)
# Type: binding
# Details: AlphaScreen, Table 29; read-out: CBP IC50
Experimental readout: IC50

Kindly note the recorded IC50 for CNc1cc(=O)n(C)cc1-c1cnn(C(C)c2ccccc2)c1 (stereo not shown) [Example 42] , which is < 500 nM

Kindly note the recorded IC50 for CCOc1ccc(-c2cc(=O)n(C)cc2-c2cnn(-c3ccccc3C(=O)O)c2)cn1 [Example 230] , which is < 500 nM

Kindly note the recorded IC50 for COc1ccc(-c2cc(=O)n(C)cc2-c2cnn(-c3cccc(F)c3C#N)c2)cn1 [Example 274] , which is < 500 nM

Kindly note the recorded IC50 for Cn1cc(-c2cnn(Cc3ccccc3)c2)c(-c2ccc(C(N)=O)cc2)cc1=O [Example 151] , which is < 500 nM

Kindly note the recorded IC50 for COc1ccc(C(=O)O)c(-n2cc(-c3cn(C)c(=O)cc3-c3ccnc(OC)c3)cn2)c1 [Example 272] , which is < 500 nM

Kindly note the recorded IC50 for COc1cc(-c2cnn(C(C)c3ccccc3)c2)cn(C)c1=O (stereo not shown) [Example 32] , which is 500 to 5000 nM

Kindly note the recorded IC50 for Cn1cc(-c2cnn(-c3cccc(Cl)c3C#N)c2)c(-c2ccc(C3CCCC3)nc2)cc1=O [Example 379] , which is < 500 nM

Kindly note the recorded IC50 for CC(C)Oc1ccc(-c2cc(=O)n(C)cc2-c2cnn(-c3cccc(F)c3C#N)c2)cn1 [Example 358] , which is < 500 nM

Kindly note the recorded IC50 for Cn1cc(-c2cnn(-c3cccc(C4CC4)c3C#N)c2)c(-c2ccn(CC3CC3)c(=O)c2)cc1=O [Example 381] , which is < 500 nM

Kindly note the recorded IC50 for Cn1cc(-c2cnn(Cc3ccccc3)c2)c(N2CCCC2)cc1=O [Example 87] , which is < 500 nM

Kindly note the recorded IC50 for Cn1cc(-c2cnn(-c3ccccc3C#N)c2)c(-c2ccc(C(N)=O)cc2)cc1=O [Example 218] , which is < 500 nM

Kindly note the recorded IC50 for Cn1cc(-c2cnn(Cc3ccccc3)c2)c(OCC#N)cc1=O [Example 167] , which is < 500 nM

Kindly note the recorded IC50 for Cn1cc(-c2cnn(C3CCCCC3O)c2)c(-c2ccccc2)cc1=O (stereo not shown) [Example 321] , which is < 500 nM

Kindly note the recorded IC50 for Cn1cc(-c2cnn(-c3cccc(Cl)c3C#N)c2)c(-c2cnc(N3CCCC3)nc2)cc1=O [Example 330] , which is < 500 nM

Kindly note the recorded IC50 for Cc1cccc(C)c1-c1cc(=O)n(C)cc1-c1cnn(Cc2ccccc2)c1 [Example 189] , which is > 5000 nM

Kindly note the recorded IC50 for CCCn1cc(-c2cn(C)c(=O)cc2-c2ccccc2)cn1 [Example 139] , which is < 500 nM

Kindly note the recorded IC50 for Cn1cc(-c2cnn(-c3ccccc3C#N)c2)c(-c2cc[nH]c(=O)c2)cc1=O [Example 205] , which is < 500 nM

Kindly note the recorded IC50 for CN(C)c1ncc(-c2cc(=O)n(C)cc2-c2cnn(-c3cccc(F)c3C#N)c2)cn1 [Example 334] , which is < 500 nM

Kindly note the recorded IC50 for O=c1cc(-c2ccccc2)c(-c2cnn(Cc3ccccc3)c2)cn1C(F)F [Example 35] , which is 500 to 5000 nM

Kindly note the recorded IC50 for C[C@@H](c1ccccc1)n1cc(-c2cn(C)c(=O)cc2-n2cccn2)cn1 [Example 60] , which is < 500 nM

Kindly note the recorded IC50 for Cc1cc(-c2cnn(-c3ccccc3C#N)c2)cn(C)c1=O [Example 254] , which is < 500 nM

Kindly note the recorded IC50 for Cn1cc(-c2cnn(-c3cccc(Cl)c3C#N)c2)c(-c2ccc(C3CC3)nc2)cc1=O [Example 366] , which is < 500 nM

Kindly note the recorded IC50 for CCOc1cc(=O)n(C)cc1-c1cnn(-c2ccccc2Cl)c1 [Example 97] , which is < 500 nM

Kindly note the recorded IC50 for Cn1cc(-c2cnn(-c3cccc(F)c3C#N)c2)c(-c2ccc(OC3CCCC3)nc2)cc1=O [Example 361] , which is < 500 nM

Kindly note the recorded IC50 for CCOc1ccc(-c2cc(=O)n(C)cc2-c2cnn(-c3cccc(F)c3C#N)c2)cn1 [Example 359] , which is < 500 nM

Kindly note the recorded IC50 for Cn1ccc(-c2cc(=O)n(C)cc2-c2cnn(-c3ccccc3C#N)c2)cc1=O [Example 221] , which is < 500 nM

Kindly note the recorded IC50 for CC(c1ccccc1)n1cc(-c2ccc(=O)n(C)c2)cn1 (stereo not shown) [Example 12] , which is 500 to 5000 nM

Kindly note the recorded IC50 for Cn1cc(-c2cnn(C3CCN(S(C)(=O)=O)CC3)c2)c(-c2ccccc2)cc1=O [Example 127] , which is < 500 nM

Kindly note the recorded IC50 for CCOc1ccc(-c2cc(=O)n(C)cc2-c2cnn(-c3cc(OC)ccc3C#N)c2)cn1 [Example 265] , which is < 500 nM

Kindly note the recorded IC50 for Cn1cc(-c2cnn(-c3cccc(Cl)c3C#N)c2)c(-c2ccc(OC3CCCC3)nc2)cc1=O [Example 352] , which is < 500 nM

Kindly note the recorded IC50 for Cn1cc(-c2cnn(-c3cccc(Cl)c3C#N)c2)c(-c2cnc(N3CCOCC3)nc2)cc1=O [Example 335] , which is < 500 nM

Kindly note the recorded IC50 for Cc1cc(-c2cnn(-c3cc(Oc4ccccc4)ccc3C(=O)O)c2)cn(C)c1=O [Example 259] , which is > 5000 nM

Kindly note the recorded IC50 for Cn1cc(-c2cnn(Cc3ccccc3)c2)c(OCCC(F)(F)F)cc1=O [Example 92] , which is < 500 nM

Kindly note the recorded IC50 for Cn1cc(-c2cnn(-c3cccc(Cl)c3C#N)c2)c(-c2cnc(NC3CCCC3)nc2)cc1=O [Example 329] , which is < 500 nM

---

# System: CBP (Homo sapiens (Human))
# Procedure details: In vitro CBP inhibition (AlphaScreen, biotinylated H4-tetraacetyl peptide)
# Format: binding
# Details: AlphaScreen, Table 29; read-out: CBP IC50
pIC50: −log10 of the molar value.
Experimental readout: pIC50

Kindly note the recorded pIC50 for CCn1ccc(-c2cc(=O)n(C)cc2-c2cnn(-c3cccc(C4CC4)c3C#N)c2)cc1=O [Example 386] , which is > 6.30

Kindly note the recorded pIC50 for CCOc1ccc(-c2cc(=O)n(C)cc2-c2cnn(-c3ccccc3C#N)c2)cn1 [Example 234] , which is > 6.30

Kindly note the recorded pIC50 for Cn1cc(-c2cnn(-c3cccc(F)c3C#N)c2)c(-c2ccc(C3CCCC3)nc2)cc1=O [Example 378] , which is > 6.30

Kindly note the recorded pIC50 for Cn1cc(-c2cnn(Cc3ccccc3)c2)c(-c2cnn(CC(N)=O)c2)cc1=O [Example 158] , which is > 6.30
